# assayed_target: T1, gastrin releasing peptide receptor (GRP-R), human (human, UniProt P30550 1-384)
# T1 construct: whole, on cells; also called GRP receptor; GRP-preferring receptor
# T1 sequence (P30550 whole entry): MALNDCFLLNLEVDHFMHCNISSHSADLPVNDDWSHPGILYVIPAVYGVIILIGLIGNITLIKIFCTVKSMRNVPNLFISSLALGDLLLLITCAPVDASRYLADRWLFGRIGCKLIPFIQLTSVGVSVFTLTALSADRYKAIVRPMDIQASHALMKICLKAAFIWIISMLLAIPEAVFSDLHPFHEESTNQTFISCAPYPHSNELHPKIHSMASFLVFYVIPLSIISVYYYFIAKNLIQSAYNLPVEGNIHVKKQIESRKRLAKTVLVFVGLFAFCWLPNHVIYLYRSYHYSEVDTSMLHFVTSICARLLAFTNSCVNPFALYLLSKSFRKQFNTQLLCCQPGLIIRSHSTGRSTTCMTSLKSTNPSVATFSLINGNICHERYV
# test_method_notes: 125I-BBN competition, PC3 cells
pIC50: −log10 of the molar value. [ ]: non-standard residue; d: D form. The star is where a group is joined. Dap = NC[C@H](N)C(=O)O; AEEA = NCCOCCOCC(=O)O; Me2Gly = CN(C)CC(=O)*
Each entry below carries its reported pIC50.
experimental_readout: pIC50

>>> number("KQWAVGHLM (N-terminus: N,N-dimethylglycine-Ser-Cys(Acm)-Gly-8-amino-3,6-dioxaoctanoic acid; C-terminal amide, also called L8) [N,N-dimethylglycine-Ser-Cys(Acm)-Gly-8-amino-3,6-dioxaoctanoic acid-Lys-BBN(7-14)]")
8.40
>>> number("RQWAVGHLM (N-terminus: N,N-dimethylglycine-Ser-Cys(Acm)-Gly-8-amino-3,6-dioxaoctanoic acid; C-terminal amide, also called L9) [N,N-dimethylglycine-Ser-Cys(Acm)-Gly-8-amino-3,6-dioxaoctanoic acid-Arg-BBN(7-14)]")
8.22
>>> number("{Me2Gly-Ser-Cys(Acm)}-G[Dap][AEEA]GQWAVGHLM-NH2 (same M-N-O-P-G as printed for L61, other MS; also called L26)")
7.52
>>> number("RGQWAVGHLM (N-terminus: N,N-dimethylglycine-Ser-Cys(Acm)-Gly-8-amino-3,6-dioxaoctanoic acid; C-terminal amide, same M-N-O-P-G as printed for L22, other MS; also called L57) [N,N-dimethylglycine-Ser-Cys(Acm)-Gly-8-amino-3,6-dioxaoctanoic acid-Arg-Gly-BBN(7-14)]")
7.30
